test.name: Measurement of maximum plasma level (Cmax) and bioavailability (BA)
Type: in vivo
conditions: male, Crl:CD(SD), po; rat plasma; orally administered solution 10 mg/kg, fasting
value.kind: Cmax (ng/mL)

> print(dat)
                                   compound  quantitative.result
1  CCC(CC)N1CCC2(CCN(C(=O)c3ccc(CN(Cc4ncc[nH]4)Cc4nccn4C)cc3)C2)CC1 [Example 40 (72)]                  157

P = CC(C)(C)CN1CCC2(CC1)CCN(C(=O)Cc1ccc(CN(Cc3ncc[nH]3)Cc3ncc[nH]3)cc1)C2 [Example 40 (68)]
Q = CC(C)(C)CN1CCC2(CCN(Cc3ccc(C(=O)N(Cc4ncc[nH]4)Cc4ncc[nH]4)cc3)CC2)C1 [Example 8 (114)]
R = CC(C)CN1CCC2(CCN(Cc3ccc(C(=O)N(Cc4ncc[nH]4)Cc4ncc[nH]4)cc3)CC2)C1 [Example 8 (113)]
S = O=C(CC(=O)N1CCC2(CCN(C3CCCCC3)CC2)C1)N1CCC(N(Cc2ncc[nH]2)Cc2ncc[nH]2)CC1 [Example 65 (4)]
Prompt: List from greatest to least Cmax. Submit the labels in the order that the ranking request calls for.
Response: S, P, R, Q
(S: 420 ng/mL, P: 175 ng/mL, R: 80 ng/mL, Q: 46 ng/mL)
